# Assayed System: CCR4 (Homo sapiens, UniProt P51679)
# Construct: purchased Promega (in-house HiBiT-GPCR construct library, NanoBRET)
# Sequence (P51679 whole entry): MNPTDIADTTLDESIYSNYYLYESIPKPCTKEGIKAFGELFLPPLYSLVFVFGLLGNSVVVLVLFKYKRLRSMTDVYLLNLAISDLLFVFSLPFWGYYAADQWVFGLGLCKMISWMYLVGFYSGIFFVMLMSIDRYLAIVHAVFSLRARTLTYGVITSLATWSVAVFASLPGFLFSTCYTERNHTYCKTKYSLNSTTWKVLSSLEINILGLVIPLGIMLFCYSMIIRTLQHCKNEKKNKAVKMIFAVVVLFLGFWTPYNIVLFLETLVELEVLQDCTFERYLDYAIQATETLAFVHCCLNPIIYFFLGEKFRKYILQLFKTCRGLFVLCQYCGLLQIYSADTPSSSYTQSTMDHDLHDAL
# Test Summary: NanoBRET screen HiBiT-CCR4 in HEK293
# Assay type: binding
# Recorded Conditions: CCR4; tracer 0.1μM
# NanoBRET Fold Response listing for each entry below
When you answer, write just the number.

Prompt line: Fill in reported NanoBRET Fold Response for this entry: Cc1nc2n(c(=O)c1CCN1CCC(c3noc4cc(F)ccc34)CC1)CCCC2OC(=O)NCCOCCOCCOCCOCCNC(=O)CCc1ccc2n1[B-](F)(F)[N+]1=C(c3ccc[nH]3)C=CC1=C2 (stereo not drawn)
Response line: 1.01

Prompt line: Output measured NanoBRET Fold Response for this item: CC(C)N(CC[C@H](c1ccccc1)c1cc(CCNC(=O)c2ccc(CNC(=O)CCc3ccc4n3[B-](F)(F)[N+]3=C(c5ccc[nH]5)C=CC3=C4)cc2)ccc1O)C(C)C
Response line: 0.95

Prompt line: Dear colleague, please send me the reported NanoBRET Fold Response for CCCn1c(=O)c2[nH]c(-c3ccc(OCC(=O)NCCNC(=O)CCOCCNC(=O)c4ccc(CNC(=O)CCc5ccc6n5[B-](F)(F)[N+]5=C(c7ccc[nH]7)C=CC5=C6)cc4)cc3)nc2n(CCC)c1=O when you can.
Response line: 1.36

Prompt line: Retrieve NanoBRET Fold Response measured for O=C(CCc1ccc2n1[B-](F)(F)[N+]1=C(c3ccc[nH]3)C=CC1=C2)NCc1ccc(C(=O)NCCOCCC(=O)N[C@@H]2CC[C@@]3(O)[C@H]4Cc5ccc(O)c6c5[C@@]3(CCN4CC3CC3)[C@H]2O6)cc1 [Naltrexone-3-NB590] and print it.
Response line: 0.32

Prompt line: Tell us which NanoBRET Fold Response value is on record for COc1ccccc1N1CCN(CCCCN2C(=O)c3ccc(CNC(=O)CCOCCNC(=O)c4ccc(CNC(=O)CCc5ccc6n5[B-](F)(F)[N+]5=C(c7ccc[nH]7)C=CC5=C6)cc4)cc3C2=O)CC1
Response line: 0.85

Prompt line: Identify measured NanoBRET Fold Response corresponding to CC(C)N(CC[C@H](c1ccccc1)c1cc(CCNC(=O)CCOCCOCCOCCOCCNC(=O)CCc2ccc3n2[B-](F)(F)[N+]2=C(c4ccc[nH]4)C=CC2=C3)ccc1O)C(C)C
Response line: 1.29
